Recorded values, source patent US20020026053A1.

- Tested on: FLK-1 receptor
- experiment: FLK-1 Assay (cellular/catalytic ELISA, VEGF-stimulated phosphotyrosine)
- Format: cell-based
- Design: concentration or dose not given beside the values
- condition_description: protocol P.110
- Protocol: The cellular/catalytic assays described herein are performed in an ELISA format. […] Non-substrate components of the cell lysate are washed away and the amount of phosphorylation on the substrate is detected with an antibody specifically recognizing phosphotyrosine compared with control cells that were not contacted with a test compound. […]
Known Flk Kinase % Inhibition (P.110) of a selection of compounds
Form entry: value (%) — number only.

Cc1ccc(C)c(C=C2C(=O)Nc3ccc(Br)c(C)c32)c1; 1.6
O=C1Nc2ccc(S(=O)(=O)N3CCOCC3)cc2C1=Cc1cc(F)ccc1F; 12.2

# input Give Flk Kinase % Inhibition (P.110) (FLK-1 receptor) of the following compound: O=C1Nc2ccc(CCCl)cc2C1=CC1COc2ccccc2O1 (stereo not shown)
# output 10.7

# input Give Flk Kinase % Inhibition (P.110) (FLK-1 receptor) of the following compound: O=C1Nc2ccc(CCCl)cc2C1=Cc1cccc(F)c1
# output 9.4

# input Give Flk Kinase % Inhibition (P.110) (FLK-1 receptor) of the following compound: O=C1Nc2c(Br)cc(Br)cc2C1=Cc1ccoc1
# output −2.5

# input Give Flk Kinase % Inhibition (P.110) (FLK-1 receptor) of the following compound: Cc1c(Br)cc(Br)c2c1C(=Cc1cccc(O)c1O)C(=O)N2
# output −44.8

# input Give Flk Kinase % Inhibition (P.110) (FLK-1 receptor) of the following compound: CN(C)CCCOc1ccc(C=C2C(=O)Nc3ccc(CCCl)cc32)cc1
# output 3.1

# input Give Flk Kinase % Inhibition (P.110) (FLK-1 receptor) of the following compound: O=C1Nc2ccc(S(=O)(=O)Nc3ccc(C(F)(F)F)cc3)cc2C1=Cc1cccc(Oc2ccc(Cl)c(Cl)c2)c1
# output 7.8

# input Give Flk Kinase % Inhibition (P.110) (FLK-1 receptor) of the following compound: O=C1Nc2ccc(CCCl)cc2C1=Cc1cccc(OCc2ccccc2)c1
# output 1.9

----------
- Tested on: FLK-1 receptor
- experiment: FLK-1 Assay (cellular/catalytic ELISA, VEGF-stimulated phosphotyrosine)
- Format: cell-based
- Design: concentration or dose not given beside the values
Mark false (0) for Flk Kinase % Inhibition (P.110) values under 10%, and true (1) for everything at or above.

Worked examples, 2 molecules total:
CC(C)(C)c1ccc(C=C2C(=O)Nc3ccc(S(=O)(=O)Nc4ccc(C(F)(F)F)cc4)cc32)cc1; true (1)
CCn1c2ccccc2c2cc(C=C3C(=O)Nc4c(Br)cc(Br)c(C)c43)ccc21; true (1)

# input Evaluate Cc1c(Br)cc(Br)c2c1C(=C1C(=O)Nc3ccc(F)cc31)C(=O)N2 : Flk Kinase % Inhibition (P.110) at minimum 10%?
# output false (0)

----------
- target_or_system: Met receptor (EGFR/Met chimeric cells, EMR) (Homo sapiens)
- Construct: expressed in transfected cells; the other entry of the earlier key: EGFR (P00533, Epidermal growth factor receptor)
- Sequence (P08581 with tags, fused parts or gaps): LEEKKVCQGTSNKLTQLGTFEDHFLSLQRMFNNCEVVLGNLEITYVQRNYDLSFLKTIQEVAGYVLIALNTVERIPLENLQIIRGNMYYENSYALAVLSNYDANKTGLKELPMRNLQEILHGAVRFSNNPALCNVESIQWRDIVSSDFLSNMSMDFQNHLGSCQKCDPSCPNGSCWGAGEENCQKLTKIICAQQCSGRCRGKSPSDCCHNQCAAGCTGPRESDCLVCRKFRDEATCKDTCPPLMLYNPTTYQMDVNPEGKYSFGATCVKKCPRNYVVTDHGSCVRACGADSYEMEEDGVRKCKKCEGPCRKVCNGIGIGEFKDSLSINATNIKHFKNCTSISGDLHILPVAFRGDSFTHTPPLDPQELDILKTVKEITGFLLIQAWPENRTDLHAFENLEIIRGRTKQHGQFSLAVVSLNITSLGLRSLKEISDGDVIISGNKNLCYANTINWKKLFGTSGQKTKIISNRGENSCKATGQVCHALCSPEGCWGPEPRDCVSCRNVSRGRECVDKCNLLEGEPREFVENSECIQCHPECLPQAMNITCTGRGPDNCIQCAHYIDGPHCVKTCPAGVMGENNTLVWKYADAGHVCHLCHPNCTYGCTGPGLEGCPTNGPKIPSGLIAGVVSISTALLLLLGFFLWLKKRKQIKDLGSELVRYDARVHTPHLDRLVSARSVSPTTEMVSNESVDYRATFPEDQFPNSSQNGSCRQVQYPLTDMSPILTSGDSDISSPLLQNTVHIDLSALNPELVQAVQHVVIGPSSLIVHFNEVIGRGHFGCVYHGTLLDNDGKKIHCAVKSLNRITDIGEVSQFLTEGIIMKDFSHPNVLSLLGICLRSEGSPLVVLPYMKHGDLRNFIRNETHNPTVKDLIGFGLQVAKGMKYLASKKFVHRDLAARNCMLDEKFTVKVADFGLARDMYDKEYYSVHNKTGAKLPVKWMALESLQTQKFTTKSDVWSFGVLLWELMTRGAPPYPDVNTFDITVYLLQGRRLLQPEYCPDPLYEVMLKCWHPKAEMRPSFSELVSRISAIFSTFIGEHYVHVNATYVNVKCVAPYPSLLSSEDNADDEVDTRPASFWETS
- experiment: Met Autophosphorylation Assay
- Assay type: biochemical
- Procedure: Met Autophosphorylation Assay This assay determines Met tyrosine kinase activity by analyzing Met protein tyrosine kinase levels on the Met receptor. a. HNTG (5× stock solution): Dissolve 23.83 g HEPES and 43.83 g NaCl in about 350 ml dH2O. Adjust pH to 7.2 with HCl or NaOH, add 500 ml glycerol and 10 ml Triton X-100, mix, add dH2O to 1 L total volume. […] 2. […] Add ½ the calculated HNTG volume, vortex the tube for 1 min., add the remaining amount of HNTG, vortex for another min. […]
Known Met Kinase % Inhibition (P.130) of a selection of compounds
Form entry: value (%) — number only.

Previously resolved entries follow.
CC(C)(C)c1ccc(C=C2C(=O)Nc3ccc(CCCl)cc32)cc1; 19.3
Cc1c(Br)cc(Br)c2c1C(=Cc1cc(Cl)c(OCc3ccccc3)c(C(C)(C)C)c1)C(=O)N2; 28.0
N#Cc1ccccc1C=C1C(=O)Nc2ccc(S(=O)(=O)N3CCOCC3)cc21; 39.7

Switching to the query record.
# input Return reported Met Kinase % Inhibition (P.130); argument: Cc1c(Br)cc(Br)c2c1C(=Cc1ccccc1)C(=O)N2
# output 24.4
